# System: B. divergens (Germany strain)
# ASSAY_COMMENT: in vitro growth inhibition assay (SYBR Green I fluorescence), single drug and 1:1 combination
# Type: cell-based, Babesia divergens
# APPLIED_CONDITIONS: B. divergens in vitro culture, 4 days
ASSAY_ENDPOINT: IC50 (nM)
Dear colleague, please return just the value in nM, with no unit written.

IC50 for CC(=O)NCC(=O)O.CC(=O)NCC(=O)O.N=C(N)c1ccc(N=NNc2ccc(C(=N)N)cc2)cc1 [DA, diminazene aceturate] ? 430

----------
# Test system: mouse embryonic fibroblast (NIH/3T3) cell line
# ASSAY_COMMENT: cytotoxicity assay (CCK-8)
# Type: cell-based
# APPLIED_CONDITIONS: NIH/3T3 cells, 24 h exposure, CCK-8
pEC50: −log10 of the molar value.
ASSAY_ENDPOINT: pEC50

pEC50 for CC(=O)NCC(=O)O.CC(=O)NCC(=O)O.N=C(N)c1ccc(N=NNc2ccc(C(=N)N)cc2)cc1 [DA, diminazene aceturate] ? < 4.00
